Hello, the source for this data is patent US20230391786A1, in case you need it.

SYSTEM: recombinant human cGAS (Homo sapiens (Human), UniProt Q8N884)
Sequence (Q8N884 whole entry): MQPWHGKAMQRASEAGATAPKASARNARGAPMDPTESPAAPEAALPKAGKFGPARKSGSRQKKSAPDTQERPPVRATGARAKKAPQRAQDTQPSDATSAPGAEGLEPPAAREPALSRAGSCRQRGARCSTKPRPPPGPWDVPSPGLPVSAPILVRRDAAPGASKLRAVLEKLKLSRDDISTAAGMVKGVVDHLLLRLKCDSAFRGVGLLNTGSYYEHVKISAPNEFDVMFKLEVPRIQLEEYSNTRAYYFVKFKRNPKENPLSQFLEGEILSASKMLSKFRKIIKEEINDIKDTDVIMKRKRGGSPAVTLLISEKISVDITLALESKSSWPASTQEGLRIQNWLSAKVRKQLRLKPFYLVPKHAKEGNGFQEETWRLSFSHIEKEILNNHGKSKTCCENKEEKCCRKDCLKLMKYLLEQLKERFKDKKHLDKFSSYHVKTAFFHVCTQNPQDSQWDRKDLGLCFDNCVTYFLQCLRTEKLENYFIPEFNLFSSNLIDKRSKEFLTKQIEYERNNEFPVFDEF
METHOD SUMMARY: In vitro inhibition assay of cGAS activity (cGAMP production, RapidFire mass spectrometry)
Assay type: biochemical
SETUP CONDITIONS: 10 nM recombinant human cGAS, 60 nM 75-bp dsDNA, ATP, GTP, room temperature 3 hours, read-out: IC50 (μM), In vitro inhibition assay for Compounds 95-348
In this section, each of the compounds is paired with its reported IC50.
REPORTED ENDPOINT: IC50 (µM)

In [3]: df
Out[3]:
                                    compound  reported_result
 0  Cn1cnc(C(=O)N2CCn3c(c(-c4cn[nH]c4)c4c(OCC#N)cc(Cl)c(Cl)c43)C2)n1           0.0106
 1  CC(=O)NCCn1cc(-c2cn[nH]c2)c2c(OCC#N)cc(Cl)c(Cl)c21           0.0764
 2  CC(=S)NCc1[nH]c2c(Cl)c(Cl)ccc2c1-c1cn[nH]c1           0.0552
 3  NC1(C(=O)N2CCn3c(c(-c4cn[nH]c4)c4ccc(Cl)c(Cl)c43)C2)CCOCC1           0.0474
 4  O=C(CO)NC1Cc2c(-c3cn[nH]c3)c3ccc(Cl)c(Cl)c3n2C1 (stereo not drawn) [Example 154]            0.026
 5  COCCC(OC)C(=O)N1CCn2c(c(-c3cn[nH]c3)c3ccc(Cl)c(Cl)c32)C1 (stereo not drawn)           0.0621
 6  CCN1C(=O)CCC1C(=O)N1CCn2c(c(-c3cn[nH]c3)c3ccc(Cl)c(Cl)c32)C1 (stereo not drawn)            0.055
 7  O=C(Nc1cc(Cl)c(Cl)c2c1c(-c1cn[nH]c1)c1n2CCN(C(=O)[C@@H]2COCCO2)C1)C(F)F           0.0206
 8  CN1C(=O)SC(CC(=O)N2CCn3c(c(-c4cn[nH]c4)c4ccc(Cl)c(Cl)c43)C2)C1=O (stereo not drawn)           0.0613
 9  CCOc1cc(Cl)c(Cl)c2c1c(-c1cn[nH]c1)c1n2CC[C@H]1NC(C)=O            0.019
10  Clc1cc(NC2COC2)c2c(-c3cn[nH]c3)c[nH]c2c1Cl           0.0245
11  OCc1nnc(-c2[nH]c3c(Cl)c(Cl)ccc3c2-c2cn[nH]c2)o1           0.0281
12  O=C(Nc1cc(Cl)cc2[nH]cc(-c3cn[nH]c3)c12)C(F)F           0.0348
13  CC(=O)N1CCn2c(c(-c3cn[nH]c3)c3c(NCC#N)cc(Cl)c(Cl)c32)C1             0.03
14  CC(=O)N[C@@H]1CCn2c1c(-c1cn[nH]c1)c1c(OCC#N)cc(Cl)c(Cl)c12           0.0249
15  CCNc1cc(Cl)c(Cl)c2[nH]cc(-c3cn[nH]c3)c12           0.0303
16  Clc1ccc2c(-c3cn[nH]c3)c3n(c2c1Cl)CC(Nc1ncccn1)CC3 (stereo not drawn)           0.0763
17  NC(=O)CCC(=O)N1CCn2c(c(-c3cn[nH]c3)c3ccc(Cl)c(Cl)c32)C1           0.0251
18  O[C@H]1CC[C@@H](Oc2cc(Cl)c(Cl)c3[nH]cc(-c4cn[nH]c4)c23)C1 (racemic)           0.0356
19  CC(=O)NC1CCCn2c1c(-c1cn[nH]c1)c1c(OCC#N)cc(Cl)c(Cl)c12 (stereo not drawn)           0.0191
20  CN1CCN(CC(=O)N2CCn3c(c(-c4cn[nH]c4)c4ccc(Cl)c(Cl)c43)C2)C1=O           0.0489
21  O=C(C1COCCOC1)N1CCn2c(c(-c3cn[nH]c3)c3ccc(Cl)c(Cl)c32)C1           0.0428
22  O=S(=O)(CCn1cnnn1)NC1CCc2c(-c3cn[nH]c3)c3ccc(Cl)c(Cl)c3n2C1 (stereo not drawn)           0.0154
23  N#CCOc1cc(Cl)c(Cl)c2c1c(-c1cn[nH]c1)c1n2CCN(C(=O)CN2CCOC2=O)C1           0.0124
24  O=C(NC1CCc2c(-c3cn[nH]c3)c3ccc(Cl)c(Cl)c3n2C1)C1(O)CCOCC1 (stereo not drawn)           0.0361
25  Cn1cc(-n2c(CO)c(-c3cn[nH]c3)c3ccc(Cl)c(Cl)c32)nn1           0.0931
26  CC(=O)N1CCOC(CCN2CCn3c(c(-c4cn[nH]c4)c4c(OCC#N)cc(Cl)c(Cl)c43)C2=O)C1 (stereo not drawn)           0.0349
